Assay: Solution stability test (residual ratio and generation of active form in buffers of pH 2.0 to 9.0)
Assay type: physicochemical
Conditions: pH2.0 buffer, 25° C., 25 umol/L, 3 hr
Structures can show the parent of a compound that is named as a salt.
The following molecules are listed with their measured Residual ratio values.
endpoint.label: Residual ratio (%)

>  <molecule>
NCCCNC(=O)Oc1c(OC(=O)NCCCN)c(-c2ccccc2)c2c(c1-c1ccccc1)OCO2 [Example 6]

>  <value>
100

$$$$
>  <molecule>
CC(=O)c1cc2c(O)c3c(O)cccc3c(OC(=O)NCCCN)c2o1 [Reference Example 9, hydrochloride]

>  <value>
96.9

$$$$
>  <molecule>
CN1CC[C@H](c2c(OC(=O)N(C)CCN)cc(O)c3c(=O)cc(-c4ccccc4Cl)oc23)[C@H](O)C1 [Example 8]

>  <value>
100

$$$$
>  <molecule>
Cc1cc(OC(=O)NCCNCC(=O)O)c2ccccc2c1OC(=O)NCCNCC(=O)O [Example 2, dihydrochloride]

>  <value>
100

$$$$
>  <molecule>
C[C@H]1COc2c1c(OC(=O)NCCNCC(=O)O)c(OC(=O)NCCNCC(=O)O)c1c3c(ccc21)C(C)(C)CCC3 [Example 12, dihydrochloride]

>  <value>
99.4

$$$$
>  <molecule>
CC(=O)c1cc2c(OC(=O)NCCNCC(=O)O)c3ccsc3c(OC(=O)NCCNCC(=O)O)c2o1 [Example 1, dihydrochloride]

>  <value>
100

$$$$

====

# Residual ratio per entry
Assay: Solution stability test (residual ratio and generation of active form in buffers of pH 2.0 to 9.0)
Type: physicochemical
Details: pH3.0 buffer, 25° C., 25 umol/L, 24 hr
Counter-ions that a name gives are not always drawn.

>  <compound>
Cc1cc(OC(=O)NCCNCC(=O)O)c2ccccc2c1OC(=O)NCCNCC(=O)O [Example 2, dihydrochloride]

>  <Residual ratio (%)>
101

$$$$
>  <compound>
CC(=O)c1cc2c(O)c3c(O)cccc3c(OC(=O)NCCCN)c2o1 [Reference Example 9, hydrochloride]

>  <Residual ratio (%)>
98.4

$$$$
>  <compound>
NCCCNC(=O)Oc1c(OC(=O)NCCCN)c(-c2ccccc2)c2c(c1-c1ccccc1)OCO2

>  <Residual ratio (%)>
100

$$$$
>  <compound>
C[C@H]1COc2c1c(OC(=O)NCCCNCC(=O)O)c(OC(=O)NCCCNCC(=O)O)c1c3c(ccc21)C(C)(C)CCC3 [Example 13, dihydrochloride]

>  <Residual ratio (%)>
100

$$$$
>  <compound>
C[C@H]1COc2c1c(OC(=O)NCCNCC(=O)O)c(OC(=O)NCCNCC(=O)O)c1c3c(ccc21)C(C)(C)CCC3 [Example 12, dihydrochloride]

>  <Residual ratio (%)>
98.3

$$$$
>  <compound>
CN1CC[C@H](c2c(OC(=O)N(C)CCN)cc(O)c3c(=O)cc(-c4ccccc4Cl)oc23)[C@H](O)C1

>  <Residual ratio (%)>
100

$$$$
>  <compound>
CC(=O)c1cc2c(OC(=O)NCCNCC(=O)O)c3ccsc3c(OC(=O)NCCNCC(=O)O)c2o1 [Example 1, dihydrochloride]

>  <Residual ratio (%)>
86.9

$$$$

====

Assay: Solution stability test (residual ratio and generation of active form in buffers of pH 2.0 to 9.0)
Format: physicochemical
Details: pH2.0 buffer, 25° C., 25 umol/L, 24 hr
Counter-ions that a name gives are not always drawn.
endpoint.label: Residual ratio (%)

>  <compound>
Cc1cc(OC(=O)NCCNCC(=O)O)c2ccccc2c1OC(=O)NCCNCC(=O)O [Example 2, dihydrochloride]

>  <value>
100

$$$$
>  <compound>
CN1CC[C@H](c2c(OC(=O)N(C)CCN)cc(O)c3c(=O)cc(-c4ccccc4Cl)oc23)[C@H](O)C1 [Example 8]

>  <value>
100

$$$$
>  <compound>
CC(=O)c1cc2c(OC(=O)NCCNCC(=O)O)c3ccsc3c(OC(=O)NCCNCC(=O)O)c2o1 [Example 1, dihydrochloride]

>  <value>
98.6

$$$$
>  <compound>
C[C@H]1COc2c1c(OC(=O)NCCNCC(=O)O)c(OC(=O)NCCNCC(=O)O)c1c3c(ccc21)C(C)(C)CCC3 [Example 12, dihydrochloride]

>  <value>
98.5

$$$$
>  <compound>
NCCCNC(=O)Oc1c(OC(=O)NCCCN)c(-c2ccccc2)c2c(c1-c1ccccc1)OCO2 [Example 6]

>  <value>
100

$$$$

FYI, the data here is from patent US20200207782A1.
